- protocol description: AUC (0-infinity) in rat at 2 mg/kg,iv measured upto 24 hrs
- Type: ADME, organism-based
- Design: dose 2 mg/kg, time < 24 hrs, route iv
- run parameters: in vivo
metric: AUC(0-inf) (ng·h/mL)
Unit ng·h/mL implied. Number only.

Bench note: what AUC(0-inf) did `CC(=O)O[C@@]12CO[C@@H]1C[C@H](O)[C@@]1(C)C(=O)[C@H](O)C3=C(C)[C@@H](OC(=O)[C@H](OC(=O)CCC(=O)NCCCC[C@H](NC(=O)CC[C@@H](NC(=O)[C@H](C)NC(=O)/C=C/c4ccc(F)cc4Cl)C(N)=O)C(=O)O)[C@@H](NC(=O)OC(C)(C)C)c4ccccc4)C[C@@](O)([C@@H](OC(=O)c4ccccc4)[C@H]21)C3(C)C` show?
5230
